- experiment description: recombinant UMI read abundance after kanamycin selection (control-corrected) (log10(CPM+1)); higher = more efficient recombination; extreme values may be limits of the assay; sequences stand for … in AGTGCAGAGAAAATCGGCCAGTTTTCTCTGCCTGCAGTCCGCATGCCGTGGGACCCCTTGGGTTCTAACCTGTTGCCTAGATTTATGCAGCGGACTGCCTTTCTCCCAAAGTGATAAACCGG…AGGTTGGTTTCACT; site = the 11-nt donor
Hi there, I'd appreciate the recorded recombinant UMI read abundance (log10) for every entry that follows.
Give bare numbers.

Completed entries (count: 4):
- biopolymer sequence: "GATTATCCATGGACCGGTTTTCCCGGTAATCCGTATTTGTT (site GATTATCCTAA)"
  recombinant UMI read abundance (log10): 0.00783
- biopolymer sequence: "ATGTATACATGGACCGGTTTTCCCGGTAATCCGTATTTGAC (site ATCTATACTGT)"
  recombinant UMI read abundance (log10): 0.457
- biopolymer sequence: "CGGGAGCCATGGACCGGTTTTCCCGGTAATCCGTATTTGCC (site CGGGAGACTGG)"
  recombinant UMI read abundance (log10): 0.0249
- biopolymer sequence: "GTGGAGTCATGGACCGGTTTTCCCGGTAATCCGTATTTGTG (site GTGGAGGCTCA)"
  recombinant UMI read abundance (log10): 0.00513

# next sequence below
The sequence listed as TAAAGTGCATGGACCGGTTTTCCCGGTAATCCGTATTTGTA (site TAAAGTGCTTA) has a reported recombinant UMI read abundance (log10) of 2.22

* * *

- experiment description: recombinant UMI read abundance after kanamycin selection (control-corrected) (log10(CPM+1)); higher = more efficient recombination; extreme values may be limits of the assay; sequences stand for … in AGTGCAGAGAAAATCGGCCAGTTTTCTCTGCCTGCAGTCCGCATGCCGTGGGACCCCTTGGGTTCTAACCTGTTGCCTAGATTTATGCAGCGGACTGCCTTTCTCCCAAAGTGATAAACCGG…AGGTTGGTTTCACT; site = the 11-nt donor
Recorded recombinant UMI read abundance (log10) determines the label; the label ranges are lower level (below 0.005), middle level (0.005 to below 0.8), upper level (0.8 or more)

Worked cases, answers included:
- biopolymer sequence: "CAAGCGCCATGGACCGGTTTTCCCGGTAATCCGTATTTGGG (site CAAGCGCCTCC)"
  group label: "middle level"
- biopolymer sequence: "GCGAAGCCATGGACCGGTTTTCCCGGTAATCCGTATTTGGA (site GCGAAGCCTCC)"
  group label: "middle level"
- biopolymer sequence: "TAATTGGCATGGACCGGTTTTCCCGGTAATCCGTATTTGTG (site TACTTGGCTCA)"
  group label: "middle level"
- biopolymer sequence: "GTACTTCCATGGACCGGTTTTCCCGGTAATCCGTATTTGCT (site GTACTTCCTAG)"
  group label: "upper level"
- biopolymer sequence: "AAGTATGCATGGACCGGTTTTCCCGGTAATCCGTATTTGGA (site AATTATGCTTC)"
  group label: "upper level"
- biopolymer sequence: "TATAGCCCATGGACCGGTTTTCCCGGTAATCCGTATTTGTA (site TATAGCCCTTA)"
  group label: "middle level"
- biopolymer sequence: "AATTATCCATGGACCGGTTTTCCCGGTAATCCGTATTTGGA (site AATTATCCTTC)"
  group label: "lower level"
- biopolymer sequence: "GTGCACGCATGGACCGGTTTTCCCGGTAATCCGTATTTGGT (site GTGCAGGCTAC)"
  group label: "middle level"

IN: Category of GGTCCAACATGGACCGGTTTTCCCGGTAATCCGTATTTGTA (site GGTCCGACTTA) :
OUT: middle level

IN: Category of AGGTTCCCATGGACCGGTTTTCCCGGTAATCCGTATTTGCG (site AGGTTCCCTCC) :
OUT: middle level

IN: Category of AGGAAGTCATGGACCGGTTTTCCCGGTAATCCGTATTTGTA (site AGGAAGTCTTA) :
OUT: upper level

IN: Category of CAATTGCCATGGACCGGTTTTCCCGGTAATCCGTATTTGCT (site CAATTACCTAG) :
OUT: lower level

IN: Category of CGTCTATCATGGACCGGTTTTCCCGGTAATCCGTATTTGCC (site CGTCTATCTGG) :
OUT: upper level

IN: Category of ACATCTACATGGACCGGTTTTCCCGGTAATCCGTATTTGTG (site ACATCTACTGA) :
OUT: lower level

IN: Category of CCATTATCATGGACCGGTTTTCCCGGTAATCCGTATTTGCT (site CCATTATCTAG) :
OUT: upper level

IN: Category of AGAAATGCATGGACCGGTTTTCCCGGTAATCCGTATTTGCT (site AGAAAGGCTAG) :
OUT: lower level

IN: Category of GCTAATACATGGACCGGTTTTCCCGGTAATCCGTATTTGGC (site CCTAATACTGC) :
OUT: middle level

* * *

- experiment description: recombinant UMI read abundance after kanamycin selection (control-corrected) (log10(CPM+1)); higher = more efficient recombination; extreme values may be limits of the assay; sequences stand for … in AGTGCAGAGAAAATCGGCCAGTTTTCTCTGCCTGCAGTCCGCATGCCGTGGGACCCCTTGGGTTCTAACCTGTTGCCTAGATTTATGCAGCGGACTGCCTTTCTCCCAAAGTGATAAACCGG…AGGTTGGTTTCACT; site = the 11-nt donor
measurement type: recombinant UMI read abundance (log10)
Answers are plain numbers.

Completed entries (count: 4):
- biopolymer sequence: "GCTGAACCATGGACCGGTTTTCCCGGTAATCCGTATTTGTC (site GCTGAACCTGA)"
  recombinant UMI read abundance (log10): 0
- biopolymer sequence: "CAAGCCACATGGACCGGTTTTCCCGGTAATCCGTATTTGGG (site CAAGCCACTCC)"
  recombinant UMI read abundance (log10): 0.408
- biopolymer sequence: "TCGTATCCATGGACCGGTTTTCCCGGTAATCCGTATTTGAC (site TCGTATCCTGT)"
  recombinant UMI read abundance (log10): 0
- biopolymer sequence: "ACACTATCATGGACCGGTTTTCCCGGTAATCCGTATTTGCA (site ACAGTATCTTG)"
  recombinant UMI read abundance (log10): 1.89

# next sequence below
The sequence listed as CAATGCTCATGGACCGGTTTTCCCGGTAATCCGTATTTGAA (site CAATGCTCTTG) has a reported recombinant UMI read abundance (log10) of 0.554

* * *

- experiment description: recombinant barcode read abundance after kanamycin selection (control-corrected) (log10(CPM+1)); higher = more efficient recombination; sequences stand for … in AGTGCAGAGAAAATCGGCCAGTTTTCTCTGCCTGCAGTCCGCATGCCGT…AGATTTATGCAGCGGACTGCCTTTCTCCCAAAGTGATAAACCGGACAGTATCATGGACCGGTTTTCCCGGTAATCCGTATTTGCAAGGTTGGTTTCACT; site = the 11-nt target
measurement type: recombinant barcode read abundance (log10)
Numbers only.

- biopolymer sequence: "TTAGTGCCTTGGGTTCTAACCTGTTGCCT (site TTAGTGCCTAG)"
  value observed: 2.14
- biopolymer sequence: "CTATGACCTTGGGTTCTAACCTGTTGCCT (site CTATGACCTAC)"
  value observed: 0.23
- biopolymer sequence: "CTAACTCCTTGGGTTCTAACCTGTTGCAT (site CTAAGTCCTAT)"
  value observed: 0.0705

For each of the sequences below, state recombinant barcode read abundance (log10).
1. ACACTCCCTTGGGTTCTAACCTGTTGCTG (site ACACTCCCTCA)
2. CTAGTACCTTGGGTTCTAACCTGTTGCCT (site CTAGTACCTAG)
3. AGCCGTACTTGGGTTCTAACCTGTTGCCT (site AGACGTACTAG)
4. GCCATGACTTGGGTTCTAACCTGTTGCCT (site GCCATTACTAG)
5. GGCGACCCTTGGGTTCTAACCTGTTGCCT (site GGCGTCACTAG)

OUT:
2.14
1.43
0.129
0
0.143

* * *

- experiment description: recombinant UMI read abundance after kanamycin selection (control-corrected) (log10(CPM+1)); higher = more efficient recombination; extreme values may be limits of the assay; sequences stand for … in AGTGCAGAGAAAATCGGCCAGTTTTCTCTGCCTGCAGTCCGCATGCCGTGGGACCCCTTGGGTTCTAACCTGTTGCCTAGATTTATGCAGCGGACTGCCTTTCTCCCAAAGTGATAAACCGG…AGGTTGGTTTCACT; site = the 11-nt donor
Hi there, I'd appreciate the recorded recombinant UMI read abundance (log10) for every entry that follows.
One number for each entry.

Completed entries (count: 2):
- biopolymer sequence: "GCTCGATCATGGACCGGTTTTCCCGGTAATCCGTATTTGCA (site GCTCGATCTTG)"
  recombinant UMI read abundance (log10): 2.07
- biopolymer sequence: "CGAGAGGCATGGACCGGTTTTCCCGGTAATCCGTATTTGGG (site CGAGAGGCTCC)"
  recombinant UMI read abundance (log10): 0.928

For each of the sequences below, state recombinant UMI read abundance (log10).
1. CCGTAGTCATGGACCGGTTTTCCCGGTAATCCGTATTTGGG (site CCGTAGTCTCC)
2. TTTGCGTCATGGACCGGTTTTCCCGGTAATCCGTATTTGCT (site TTTGCGGCTAG)
3. GTGCGTCCATGGACCGGTTTTCCCGGTAATCCGTATTTGTG (site GTGCGTCCTCA)
4. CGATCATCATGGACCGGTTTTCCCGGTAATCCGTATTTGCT (site CGACCATCTAC)
5. TGGCCACCATGGACCGGTTTTCCCGGTAATCCGTATTTGTT (site TGGCCACCTAA)

OUT:
0.0263
0.018
0.0594
0
0.0258

For each of the sequences below, state recombinant UMI read abundance (log10).
1. GTATAGACATGGACCGGTTTTCCCGGTAATCCGTATTTGCC (site GAATAGACTGG)
2. CTCCACACATGGACCGGTTTTCCCGGTAATCCGTATTTGCT (site CTCAACACTAG)

OUT:
1: 2.37; 2: 0
